Origin of values: the RNAGym collection of RNA variant scans (doi:10.7554/elife.80360)

B1: CPEB3 Ribozyme (parent)
chain: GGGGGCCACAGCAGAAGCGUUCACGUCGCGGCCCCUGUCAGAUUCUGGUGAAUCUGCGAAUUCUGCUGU

# Variants of: B1
# experimentDescription: self-cleavage, relative activity (ratio to wild type); higher = more cleavage; co-transcriptional
endpoint: self-cleavage
The reply should be a number, written without any unit.

Consider the variant shown here: G19U U53C What is its recorded self-cleavage?
0.242

And what about the variant A15C U53G ?
0.558

And what about the variant U21G C39U ?
0.61

And what about the variant A10U G65A ?
0.842

And what about the variant C6G U46G ?
0.386

And what about the variant G25U G28U ?
0.145

And what about the variant G3A G41C ?
0.198

And what about the variant A23G G28C ?
0.13

And what about the variant C18A U43C ?
0.161

And what about the variant C29U G68C ?
0.571

And what about the variant G28U A59C ?
0.251

And what about the variant G28U G68U ?
0.208

And what about the variant A23C U36G ?
0.326

And what about the variant C7A U62G ?
0.29

And what about the variant C22U C32G ?
0.133

And what about the variant C35A U67G ?
0.288

And what about the variant U55A ?
0.96

And what about the variant G14C U53A ?
0.326

And what about the variant A23G G31U ?
0.583

And what about the variant C34G U36A ?
0.192

And what about the variant G5A A23G ?
0.806

And what about the variant C24U U55C ?
0.391

And what about the variant C7A U64C ?
0.336

And what about the variant G31A A42C ?
0.601

And what about the variant G14A G28A ?
0.147

And what about the variant A42C G48A ?
0.965

And what about the variant G5U U21G ?
0.0935

And what about the variant G30A G68U ?
1

And what about the variant G30C C39G ?
0.403

And what about the variant G14U U55A ?
0.325

And what about the variant G25A C34G ?
0.19

And what about the variant C32A C39G ?
0.6

And what about the variant G48U A59G ?
0.993

And what about the variant G14U G68A ?
0.908

And what about the variant C9G A15U ?
0.911

And what about the variant U20A U49G ?
0.199

And what about the variant C32G G58U ?
0.622

And what about the variant U20C C29G ?
0.165

And what about the variant G4U G68C ?
0.97

And what about the variant U20A C27A ?
0.151

And what about the variant C7U G31A ?
0.496

And what about the variant A15C G19U ?
0.164

And what about the variant G3A C22U ?
0.0997

And what about the variant U21G A42G ?
0.558

And what about the variant G65C G68C ?
0.633

And what about the variant G2U C35U ?
0.0749
